study-system: E. coli K12 PBP3 (Escherichia coli)
Sequence (P0AD68 1-577): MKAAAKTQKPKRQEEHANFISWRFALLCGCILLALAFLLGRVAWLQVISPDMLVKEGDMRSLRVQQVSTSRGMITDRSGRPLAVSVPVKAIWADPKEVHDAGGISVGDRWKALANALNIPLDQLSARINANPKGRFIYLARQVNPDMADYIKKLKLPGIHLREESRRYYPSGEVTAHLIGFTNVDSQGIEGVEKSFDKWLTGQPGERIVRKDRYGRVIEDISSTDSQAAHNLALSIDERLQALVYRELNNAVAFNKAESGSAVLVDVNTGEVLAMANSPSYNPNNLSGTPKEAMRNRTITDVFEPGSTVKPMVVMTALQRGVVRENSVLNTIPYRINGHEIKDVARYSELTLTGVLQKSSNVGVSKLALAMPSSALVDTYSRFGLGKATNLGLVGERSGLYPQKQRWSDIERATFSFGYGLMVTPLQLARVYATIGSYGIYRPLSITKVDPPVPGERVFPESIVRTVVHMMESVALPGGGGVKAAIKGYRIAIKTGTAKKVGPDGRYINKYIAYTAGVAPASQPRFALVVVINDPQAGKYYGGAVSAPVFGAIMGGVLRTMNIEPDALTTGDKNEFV
assay-name: biochemical
pEC50: −log10 of the molar value.
property-name: pEC50

Take a look at these entries with their results.
CCN1CCN(C(=O)NC(C(=O)N[C@H]2Cc3cccc(C(=O)O)c3OB2O)c2cc([N+](=O)[O-])c(O)cc2F)C(=O)C1=O (stereo partly drawn) [Example 184] ... > 4.52
CCN1CCN(C(=O)N[C@H](C(=O)N[C@H]2Cc3cccc(C(=O)O)c3OB2O)c2ccc(C(=O)O)c(F)c2F)C(=O)C1=O (single isomer, unassigned) [Example 139] ... > 4.52
CCN1CCN(C(=O)NC(C(=O)N[C@H]2Cc3cccc(C(=O)O)c3OB2O)c2cc(F)c(C(=O)O)c(F)c2)C(=O)C1=O (stereo partly drawn) [Example 141] ... > 4.52
CCN1CCN(C(=O)NC(C(=O)N[C@H]2Cc3cccc(C(=O)O)c3OB2O)c2ccc(C(=O)O)c(Cl)c2Cl)C(=O)C1=O (stereo partly drawn) [Example 201] ... > 4.52
NCCCN1CCN(C(=O)N[C@@H](C(=O)N[C@H]2Cc3cccc(C(=O)O)c3OB2O)c2ncc(O)cc2F)C(=O)C1=O [Example 13] ... > 4.52

Fill in pEC50 for each of the 6 molecules listed.
1. CCN1CCN(C(=O)NC(C(=O)N[C@H]2Cc3cccc(C(=O)O)c3OB2O)c2cccc(S(N)(=O)=O)c2)C(=O)C1=O (stereo partly drawn) [Example 99]
2. NCCN1CCN(C(=O)NC(C(=O)N[C@H]2Cc3cccc(C(=O)O)c3OB2O)c2ccc(C(=O)O)c(Cl)c2)C(=O)C1=O (stereo partly drawn) [Example 153]
3. CCN1CCN(C(=O)N[C@H](C(=O)N[C@H]2Cc3cccc(C(=O)O)c3OB2O)c2ccc(C(=O)O)c(F)c2Cl)C(=O)C1=O (single isomer, unassigned) [Example 202]
4. CCN1CCN(C(=O)NC(C(=O)N[C@H]2Cc3cccc(C(=O)O)c3OB2O)c2cc(C#N)c(OC)cc2F)C(=O)C1=O (stereo partly drawn) [Example 192]
5. NCCN1CCN(C(=O)N[C@H](C(=O)N[C@H]2Cc3cccc(C(=O)O)c3OB2O)c2cc(F)c(O)c(F)c2)C(=O)C1=O (single isomer, unassigned) [Example 158]
6. N[C@@H](C(=O)N[C@H]1Cc2ccc(F)c(C(=O)O)c2OB1O)c1ccc(OS(=O)(=O)F)cc1 [Example 32]

1: 3.30 to 4.52; 2: > 4.52; 3: 3.30 to 4.52; 4: 3.30 to 4.52; 5: 3.30 to 4.52; 6: < 3.30

Please give the measured pEC50 for this molecule: CCN1CCN(C(=O)NC(C(=O)N[C@H]2Cc3cccc(C(=O)O)c3OB2O)c2cccc(NC(=O)c3ccc(O)c(O)c3Cl)c2)C(=O)C1=O (stereo partly drawn) [Example 73]
> 4.52

---

Test system: N. gonorrhoeae WHO Z
assay-name: Liquid broth MIC in Fastidious broth
Type: cell-based
test-settings: Neisseria gonorrhoeae, read-out: Minimum Inhibitory Concentration, N. gonorrhoeae WHO Z
Experimental: Example V: In Vitro Antibacterial Assays for N. gonorrhoeae Strains Additional antibacterial testing of the series was performed in 8 reference strains of N. gonorrhoeae (ATCC 49226, FA1090, WHO G, WHO L, WHO K, H041, WHO Z, and WHO Q). ATCC 49226, FA1090, WHO G, and WHO L produce wild type or wild-type like PBP2. […] After the dilution plates were set up, direct suspensions were then diluted in a cuvette containing sterile saline and the optical density was measured at 600 nm. […]
property-name: MIC

Take a look at these entries with their results.
CCN1CCN(C(=O)NC(C(=O)N[C@H]2Cc3cccc(C(=O)O)c3OB2O)c2cccc(N)c2)C(=O)C1=O (stereo partly drawn) ... 16 to 32 µg/mL
CCN1CCN(C(=O)NC(C(=O)N[C@H]2Cc3cccc(C(=O)O)c3OB2O)c2c(Cl)cc(C(=O)O)cc2Cl)C(=O)C1=O (stereo partly drawn) ... > 64 µg/mL
CCN1CCN(C(=O)N[C@@H](C(=O)N[C@H]2Cc3cccc(C(=O)O)c3OB2O)c2ccc(C(=O)O)cc2O)C(=O)C1=O (single isomer, unassigned) ... 4 to 8 µg/mL
O=C(O)c1cccc2c1OB(O)[C@@H](NC(=O)C(NC(=O)N1CCN(CCF)C(=O)C1=O)c1c(F)cc(O)cc1F)C2 (mixture of isomers) ... 4 to 8 µg/mL
CCN1CCN(C(=O)NC(C(=O)N[C@H]2Cc3ccc(F)c(C(=O)O)c3OB2O)c2nc(N)sc2F)C(=O)C1=O (stereo partly drawn) ... 4 to 8 µg/mL

Please find the next compound below.
Param readout = MIC; param system = N. gonorrhoeae WHO Z; param query = NS(=O)(=O)Nc1cccc(C(NC(=O)N2CCN(CCF)C(=O)C2=O)C(=O)N[C@H]2Cc3cccc(C(=O)O)c3OB2O)c1 (stereo partly drawn) ; response: value
16 to 32 µg/mL

---

System: E. coli ATCC 25922
assay-name: Broth microdilution MIC in CAMHB
Assay type: cell-based
test-settings: Escherichia coli, ATCC25922; E. coli ATCC 25922; MHB; read-out: Minimum Inhibitory Concentration, E. coli 25922
Would you mind telling me the reported MIC of each entry?

Take a look at these entries with their results.
CCN1CCN(C(=O)N[C@H](C(=O)N[C@H]2Cc3cccc(C(=O)O)c3OB2O)c2ccc(C(=O)O)cc2Cl)C(=O)C1=O (single isomer, unassigned) [Example 152] ... > 128 µg/mL
NCCN1CCN(C(=O)NC(C(=O)N[C@H]2Cc3cccc(C(=O)O)c3OB2O)c2c(F)cc(O)cc2Cl)C(=O)C1=O (stereo partly drawn) [Example 94] ... 32 to 64 µg/mL
CCN1CCN(C(=O)N[C@@H](C(=O)N[C@H]2Cc3cccc(C(=O)O)c3OB2O)c2cc(O)cc(O)c2)C(=O)C1=O (single isomer, unassigned) [Example 82] ... 32 to 64 µg/mL
N=C(N)NC(C(=O)N[C@H]1Cc2ccc(F)c(C(=O)O)c2OB1O)c1ncc(O)cc1F (stereo partly drawn) [Example 52] ... > 128 µg/mL

Fill in MIC for each of the 2 molecules listed.
1. CCN1CCN(C(=O)N[C@@H](C(=O)N[C@H]2Cc3cccc(C(=O)O)c3OB2O)c2ccc(C(=O)O)c(F)c2Cl)C(=O)C1=O (single isomer, unassigned) [Example 203]
2. NCCN1CCN(C(=O)N[C@@H](C(=O)N[C@H]2Cc3cccc(C(=O)O)c3OB2O)c2cccc(NS(N)(=O)=O)c2)C(=O)C1=O (single isomer, unassigned) [Example 114]

1: > 128 µg/mL; 2: 32 to 64 µg/mL

---

Test system: A. baumannii CDC-0036 OXA-65, and OXA-24
property-name: MIC

Take a look at these entries with their results.
Nc1nc(/C(=N/OC[C@H](NC(=O)c2ccc(O)c(O)c2Cl)C(=O)O)C(=O)N[C@H]2Cc3cccc(C(=O)O)c3OB2O)cs1 ... 32 to 64 µg/mL
O=C(O)c1c(F)ccc2c1OB(O)[C@@H](NC(=O)C(NC(=O)N1CCN(CCF)C(=O)C1=O)c1c(F)cc(O)c(O)c1F)C2 (stereo partly shown) ... 2 to 4 µg/mL
NCCN1CCN(C(=O)N[C@@H](C(=O)N[C@H]2Cc3ccc(F)c(C(=O)O)c3OB2O)c2c(F)c(F)c(O)c(O)c2Cl)C(=O)C1=O ... 8 to 16 µg/mL
NCCN1CCN(C(=O)N[C@@H](C(=O)N[C@H]2Cc3ccc(F)c(C(=O)O)c3OB2O)c2c(F)cc(O)c(O)c2F)C(=O)C1=O (single isomer, unassigned) ... 2 to 4 µg/mL
NCCCN1CCN(C(=O)N[C@@H](C(=O)N[C@H]2Cc3ccc(F)c(C(=O)O)c3OB2O)c2c(F)c(F)c(O)c(O)c2Cl)C(=O)C1=O ... 2 to 4 µg/mL
O=C(O)c1ccc(C(NC(=O)c2ccc(O)c(O)c2Cl)C(=O)N[C@H]2Cc3cccc(C(=O)O)c3OB2O)cc1F (stereo partly shown) ... 32 to 64 µg/mL
CS(=O)(=O)N1CCN(C(=O)N[C@@H](C(=O)N[C@H]2Cc3ccc(F)c(C(=O)O)c3OB2O)c2cc(F)c(O)c(O)c2Cl)C1=O (single isomer, unassigned) ... 2 to 4 µg/mL
CCN1CCN(C(=O)N[C@@H](C(=O)N[C@H]2Cc3cc(Cl)c(F)c(C(=O)O)c3OB2O)c2c(F)cc(O)c(O)c2Cl)C(=O)C1=O ... 32 to 64 µg/mL
O=C(NCCCN1CCN(C(=O)NC(C(=O)N[C@H]2Cc3ccc(F)c(C(=O)O)c3OB2O)c2ncc(O)cc2F)C(=O)C1=O)c1ccc(O)c(O)c1Cl (stereo partly shown) ... 32 to 64 µg/mL

Please find the next compound below.
Please give the measured MIC for this compound: O=C(Nc1ccc(O)c(O)c1Cl)NC(C(=O)N[C@H]1Cc2ccc(F)c(C(=O)O)c2OB1O)c1ncc(O)cc1F (stereo partly shown)
32 to 64 µg/mL
